Exercise: state measured pKd for each of the binders provided.
ASSAY_TARGET: T1, J1 DSL-EGF3 soluble recombinant protein (human Jagged 1 amino acids 185-335) (human, UniProt P78504 185-335)
T1 construct: biotinylated in the CD46 ELISA; also called J1-DE3; DSL+EGF1-3
T1 sequence (P78504 185-335, form in doubt): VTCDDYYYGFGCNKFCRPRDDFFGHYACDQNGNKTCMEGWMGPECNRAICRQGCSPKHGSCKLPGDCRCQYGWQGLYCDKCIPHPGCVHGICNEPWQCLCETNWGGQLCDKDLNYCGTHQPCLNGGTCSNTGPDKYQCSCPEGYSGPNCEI
PROTOCOL: affinity to the immunogen J1-DE3; method not stated
Numbers only, as −log10 of the molar value.

Some solved entries appear below for comparison.
binder="J1-65D variant 9 (antibody, human IgG1, V domains shown, human IgG1; also called J1-65DV9; V9) VH: QVQLVQSGAELKKPGSSVKVSCKASGYTFTDYEMHWVRQAPGQGLEWMGAIQPGGGGTAYNQKFKGRVTLTADKSTSTAYMELSSLRSEDTAVYYCTRRGYDDYPFAYWGQGTLVTVSS VL: DIQMTQSPSSLSASVGDRVTITCRASGNIHNYLAWYQQKPGKAPKLLIYNAKTLADAVPSRFSGSGSGTDYTLTISSLQPEDFATYYCQHFWSAPWTFGQGTKLEIKR" endpoint_result=10.86
binder="J1-183D variant 8 (antibody, human IgG1, V domains shown, human IgG1; also called J1-183DV8; V8) VH: QVQLVQSGAEVKKPGASVKVSCKASGYTFTDYAIHWVRQAPGQGLEWMGIINTYYGDSKYAQKFQGRVTMTVDTSTSTAYMELSSLRSEDTAVYYCARGYDGFAYWGQGTLVTVSS VL: DIQMTQSPSSLSASVGDRVTITCRTSENIYSYLTWYQQKPGKAPKLLIYNAKTLASGVPSRFSGSGSGTDFTLTISSLQPEDFATYYCQHHYDIPWTFGGGTKLEIKR" endpoint_result=8.83

Now consider a different binder.
Quick check: pKd of J1-65D (antibody, V domains shown) VH: QVQLQQPGAELVRPGASVKLSCKALGYTFTDYEMHWVKETPVHGLEWIGAIQPGGGGTAYNQKFKGKATLTADKSSSTAYMELSSLTSEDSAVYYCTRRGYDDYPFAYWGQGTLVTVSS VL: DIQLTQSPASLSASVGETVTITCRASGNIHNYLAWYQQKQGKSPQLLVYNAKTLADDIPSRFSGSGSGTQYSLKINSLQPEDFGSYYCQHFWSAPWTFGGGTKLEIK ?
9.89
